System: Escherichia coli ATCC 25922
CONDITION: ATCC 25922
Where a SMILES comes first, the peptide text is derived from it. [ ]: non-standard residue; d: D form. The star is where a group is joined. OBn = c1ccc(CO*)cc1

| COMPOUND | TESTED ON | MBC E. coli |
| --- | --- | --- |
| COC(=O)[C@H](CCCNC(=N)N)NC(=O)[C@@H](N)Cc1c[nH]c2ccccc12 [WR-OMe, H-L-Trp-L-Arg-OMe] (H-Trp-Arg-OMe) | Escherichia coli ATCC 25922 | >200 (>200) μg/ml |
| N=C(N)NCCC[C@H](NC(=O)[C@H](Cc1c[nH]c2ccccc12)NC(=O)[C@H](CCCNC(=N)N)NC(=O)[C@H](Cc1c[nH]c2ccccc12)NC(=O)[C@@H](N)CCCNC(=N)N)C(N)=O [RWRWR] (H-RWRWR-NH2) | Escherichia coli ATCC 25922 | 100 µg/mL |
| N=C(N)NCCC[C@@H](N)C(=O)N[C@H](Cc1c[nH]c2ccccc12)C(=O)OCc1ccccc1 [rw OBz] (H-[dR]-[dW]-OBn) | Escherichia coli ATCC 25922 | >200 (>200) μg/ml |
